In this section we review reported %Inh values for a set of compounds.
system: MKK7; conditions: concentration: 1 μM, replicates: in singlicate; n = 1
Note: unit % is implicit; provide only the numeric part.

compound	numeric result
CC1=C(C(=O)Nc2cc3cn[nH]c3cc2F)C(c2ccc(C(F)(F)F)cc2)CC(=O)N1 (stereo not shown)	48

Data request: Which value of %Inh has been reported for COc1ccc(CNC(=O)NC2CCN(c3ccnc(Nc4cc(OC)c(OC)c(OC)c4)n3)C2)cc1 (stereo not shown) in the records?
Data returned: 0

Data request: Next compound: `Cl.NC(=O)c1cccc(Nc2nccc(Nc3ccc(Oc4cccc(Cl)c4)c(Cl)c3)n2)c1`
Data returned: 0

Data request: What about `Nc1nc(-c2nccs2)c(-c2ccnc3ccccc23)s1` ?
Data returned: 0

Data request: Proceed to `COc1ccc(Nc2nccc(NCCNC(=O)Nc3ccccc3F)n2)cc1`
Data returned: 55

* * *

tested on: NIK; construct: gene MAP3K14; details: concentration: 1 μM, replicates: in singlicate; n = 1
Reported values of %Inh for individual entries
Number only, in %; omit the unit.

1) Cc1ccc(C(=O)Nc2ccc(Nc3ccnc4cc(-c5ccccn5)ccc34)cc2O)cc1.Cl 11

Data request: Form field: reported %Inh of `Cl.O=C(Nc1cccc(-c2nn3ncccc3c2-c2ccnc(Nc3cccnc3)n2)c1)c1c(F)cccc1F`
Data returned: 24

Data request: Same again, this time with `Clc1cc(Cl)cc(Nc2ccnc(Nc3cc(Cl)cc(Cl)c3)n2)c1`
Data returned: 0

Data request: Item: `Cc1ccccc1-n1cnc2c(N)ncnc21`
Data returned: 0

Data request: Moving on to `COc1cc2nccc(Nc3ccc(NC(=O)c4ccc(C)cc4)c(O)c3)c2cc1OC.Cl`
Data returned: 15

* * *

tested on: DYRK1B; details: concentration: 1 μM, replicates: in singlicate; n = 1
assay endpoint: %Inh (%)
Numbers only; they are read as %.

compound	numeric result
Cc1ccc(-c2cc(-c3c[nH]nc3-c3ccccn3)ccn2)cc1	6
NC(=O)c1nnc2ccccc2c1N	16
Cc1cc(-c2ccc3c(c2)CC[C@@H](N[C@@H](C)c2ccccc2)C3)cnc1N.Cl	17

Data request: Suppose we examine the compound CC1=C(C(=O)Nc2cc3cn[nH]c3cc2F)C(c2ccc(C(F)(F)F)cc2)CC(=O)N1 (stereo not drawn) ; what %Inh value has been reported?
Data returned: 0

Data request: Please answer likewise for `CN1C(=O)C(Nc2ccc(Cl)c(C(=O)O)c2)=C(c2ccc(Cl)cc2)C1=O`
Data returned: 0

Data request: Could you do the same for `Cc1cccc(-c2cc(Nc3ccncc3)c3ccccc3n2)n1` , please?
Data returned: 0

* * *

test system: SYK;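 note: kd values determined as follow-up on hits from a single-replicate KINOMEscan panel screen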
pKd: −log10 of the molar value.
assay endpoint: pKd

Data request: Form field: reported pKd of Cc1ccccc1-n1cnc2c(N)ncnc21 [SKF-97510]
Data returned: < 5.00

* * *

Reported %Inh values follow for various molecules
test system: YSK4; construct: gene MAP3K19; conditions: concentration: 1 μM, replicates: in singlicate; n = 1
Enter your answer as a number in %; do not include the unit.

These solved cases illustrate the format of a correct answer.
molecule	assay endpoint	numeric result
CS(=O)(=O)c1ccc(-c2nc3n(c2-c2ccncc2)CCC3)cc1	%Inh	1
Cc1cccc(-c2nc(C)cc(Nc3ccncc3)n2)n1	%Inh	0

Data request: Form field: reported %Inh of `Cl.c1ccc(-c2n[nH]cc2-c2ccnc(-c3ccc(CN4CCOCC4)cc3)c2)nc1`
Data returned: 0

Data request: Follow-up entry: `COc1cc2nccc(Nc3ccc(NC(=O)c4ccc(C)cc4)c(O)c3)c2cc1OC.Cl`
Data returned: 9

Data request: Repeat for the following molecule: `COc1cccc(-c2cc(-c3c[nH]nc3-c3ccccn3)ccn2)c1`
Data returned: 0

Data request: Record: Cc1nnc(-c2ccc3occ(-c4ccc(S(C)=O)cc4)c3c2)[nH]1 (stereo not drawn)
Data returned: 44

Data request: And then O=C(Nc1ccc2c(c1)OCO2)NC1CCN(c2ccnc(Nc3ccc(F)cc3)n2)C1 (stereo not drawn) , what is it?
Data returned: 39

* * *

tested on: RPS6KA4(Kin.Dom.2-C-terminal); details: concentration: 1 μM, replicates: in singlicate; n = 1
assay endpoint: %Inh (%)
Write the answer as a number in %, unit excluded.

compound	assay endpoint	numeric result
COc1ccc(Nc2nccc(NCCNC(=O)Nc3ccccc3F)n2)cc1 [GSK1379901]	%Inh	0
O=C(Nc1n[nH]c2cc(-c3cccc(F)c3F)ccc12)C1CC1 [SB-733894]	%Inh	2
O=C(O)COc1ncnc2cc(-c3ccc4[nH]ncc4c3)sc12	%Inh	17
CS(=O)(=O)c1ccc(-c2c(-c3ncn[nH]3)sc(N3CCOCC3)c2C#N)cc1	%Inh	0
COc1ccc2nc(-c3cccc(C)n3)nc(Nc3ccncc3)c2c1 [GSK204919]	%Inh	0

We next turn to a different compound, shown below.
Data request: Query: %Inh; subject: CCn1c(-c2ccccn2)nc2cnccc21 [SB-736398]
Data returned: 0

* * *

// reported %Inh per item
system: MARK1; details: concentration: 1 μM, replicates: in singlicate; n = 1
Write it as a number; the unit % goes unstated.

Data request: # lookup: %Inh of `O=C(Nc1n[nH]c2nc(-c3nccs3)c(Br)cc12)C1CCCC1`
Data returned: 0

* * *

system: WEE2; conditions: concentration: 1 μM, replicates: in singlicate; n = 1
assay endpoint: %Inh (%)
Please state the figure in %; there is no need to write the unit.

Solved cases below.
molecule	display unit	%Inh
Cc1ccc(C(=O)Nc2ccc(Nc3ccnc4cc(-c5ccccn5)ccc34)cc2O)cc1.Cl [GW440146]	%	0
COc1ccc(Nc2nccc(NCCNC(=O)Nc3ccccc3F)n2)cc1 [GSK1379901]	%	0
Cn1ccc2ncnc(Oc3cccc(C(=O)Nc4ccccc4)c3)c21	%	0
Cc1cc(NCC(c2ccccc2)c2ccccc2)nc(NCc2ccc(C(F)(F)F)cc2)n1 [GW497681]	%	0

Attention now shifts to the item below.
Data request: // lookup %Inh | system=WEE2 | key= COc1ccc(C2=C(Nc3cccc(C(=O)O)c3)C(=O)NC2=O)cc1 [SB-390765]
Data returned: 16

* * *

system: EPHA2; conditions: concentration: 1 μM, replicates: in singlicate; n = 1
Kindly return 1 (yes) if reported %Inh is no lower than 6%; return 0 (no) if it is lower.

Sample answers from the record:
molecule	class assignment
COc1cccc(-c2cc(-c3c[nH]nc3-c3ccccn3)ccn2)c1	0 (no)
Cc1ccc(NC(=O)Nc2cccc(Cl)c2)cc1-c1ccc(C(=O)Nc2ccncc2)cc1	0 (no)
Cc1cc(N2Cc3ccccc3C2)nc(Nc2ccc(S(=O)(=O)N3CCOCC3)cc2)n1.Cl	1 (yes)
CCCc1ccc(S(=O)(=O)NC2CCN(c3ccnc(Nc4ccc(F)cc4)n3)C2)cc1 (stereo not drawn)	1 (yes)
O=C(Nc1n[nH]c2cc(-c3cccc(F)c3F)ccc12)C1CC1	1 (yes)

Data request: Is reported %Inh greater than or equal to 6% here: `CCn1c(-c2cccnc2O)nc2cnccc21`
Data returned: 0 (no)

Data request: Same for `Cc1cccc(-c2nc(Nc3ccc4[nH]ncc4c3)c3ccccc3n2)n1`
Data returned: 0 (no)

Data request: Also need `Cc1ccc(-c2cc(-c3c[nH]nc3-c3ccccn3)ccn2)cc1` , thanks.
Data returned: 0 (no)

Data request: Then this molecule: COc1ccc(CNC(=O)NC2CCN(c3ccnc(Nc4cc(OC)c(OC)c(OC)c4)n3)C2)cc1 (stereo not drawn)
Data returned: 1 (yes)

Data request: Input Cc1nnc(-c2ccc3occ(-c4ccc(S(C)=O)cc4)c3c2)[nH]1 (stereo not drawn)
Data returned: 0 (no)

Data request: Also `Cc1cc(-c2ccc3c(c2)CC[C@@H](N[C@@H](C)c2ccccc2)C3)cnc1N.Cl` ?
Data returned: 1 (yes)

Data request: And the next one, `COc1cc2ncnc(Nc3ccc4nc(-c5ccccc5)[nH]c4c3)c2cc1OC.Cl` ?
Data returned: 0 (no)

Data request: What about this molecule? `Cc1cccc(-c2nc(C)cc(Nc3ccncc3)n2)n1`
Data returned: 1 (yes)

Data request: And the next one, `Cc1cccc(-c2nc(-c3ccc(S(C)(=O)=O)cc3)sc2-c2ccnc(NCCc3ccccc3)c2)c1` ?
Data returned: 0 (no)

Data request: Again, but for `O=C1NC(=O)C(N2CCc3ccccc32)=C1c1ccccc1Cl`
Data returned: 1 (yes)

Data request: Another molecule to check: `C[C@@H]1CCCCN1c1cc(-c2ccc3c(N)n[nH]c3c2)nc(N)n1`
Data returned: 0 (no)

* * *

%Inh values, listed per item
test system: CTK; construct: gene MATK; conditions: concentration: 1 μM, replicates: in singlicate; n = 1
Give a bare numeral; the unit % is implied.

Examples with answers:
compound	target of assay	display unit	%Inh
CCn1c(-c2ccccn2)nc2cnccc21 [SB-736398]	CTK	%	0
CC(C)(C)c1ccc(C(=O)Nc2cn3cc(-c4cccnc4)ccc3n2)cc1	CTK	%	12
Cc1ccc(C(=O)Nc2ccc(Nc3ccnc4cc(-c5ccccn5)ccc34)cc2O)cc1.Cl [GW440146]	CTK	%	0

Data request: Any idea what its %Inh is? The compound is Cc1ccccc1-n1cnc2c(N)ncnc21 [SKF-97510]
Data returned: 0

Data request: Check O=C(Nc1n[nH]c2nc(-c3nccs3)c(Br)cc12)C1CC1 [SB-742251] too.
Data returned: 15
